system: Human immunodeficiency virus 1; assay: Inhibition of HIV1 protease at 50 nM

CHEM_SMILES	inhibition / %
CSC[C@H](NC(=O)Cc1ccccc1C)C(=O)N[C@@H](Cc1ccccc1)[C@H](O)C(=O)N1CSC(C)(C)[C@H]1C(=O)N[C@H]1c2ccccc2C[C@H]1O	83
CSC[C@H](NC(=O)Cc1ccccc1O)C(=O)N[C@@H](Cc1ccccc1)[C@H](O)C(=O)N1CSC(C)(C)[C@H]1C(=O)N[C@H]1c2ccccc2C[C@H]1O	86
CSC[C@H](NC(=O)c1cc(=O)c2ccccc2o1)C(=O)N[C@@H](Cc1ccccc1)[C@H](O)C(=O)N1CSC(C)(C)[C@H]1C(=O)N[C@H]1c2ccccc2C[C@H]1O	99
CSC[C@H](NC(=O)OC1CCCCC1)C(=O)N[C@@H](Cc1ccccc1)[C@H](O)C(=O)N1CSC(C)(C)[C@H]1C(=O)N[C@H]1c2ccccc2C[C@H]1O	56
CSC[C@H](NC(=O)Cc1ccc(O)cc1)C(=O)N[C@@H](Cc1ccccc1)[C@H](O)C(=O)N1CSC(C)(C)[C@H]1C(=O)N[C@H]1c2ccccc2C[C@H]1O	88
COc1ccc(CC(=O)N[C@@H](CSC)C(=O)N[C@@H](Cc2ccccc2)[C@H](O)C(=O)N2CSC(C)(C)[C@H]2C(=O)N[C@H]2c3ccccc3C[C@H]2O)cc1	91

* * *

system: Human immunodeficiency virus 1; assay: Inhibition of HIV1 protease at 50 nM

CHEM_SMILES	inhibition (%)
CSC[C@H](NC(=O)Cc1cccc(N)c1)C(=O)N[C@@H](Cc1ccccc1)[C@H](O)C(=O)N1CSC(C)(C)[C@H]1C(=O)N[C@H]1c2ccccc2C[C@H]1O	76
CSC[C@H](NC(=O)Cc1cccc(O)c1)C(=O)N[C@@H](Cc1ccccc1)[C@H](O)C(=O)N1CSC(C)(C)[C@H]1C(=O)N[C@H]1c2ccccc2C[C@H]1O	84
COc1cccc(CC(=O)N[C@@H](CSC)C(=O)N[C@@H](Cc2ccccc2)[C@H](O)C(=O)N2CSC(C)(C)[C@H]2C(=O)N[C@H]2c3ccccc3C[C@H]2O)c1	88
CSC[C@H](NC(=O)COc1cccc2cnccc12)C(=O)N[C@@H](Cc1ccccc1)[C@H](O)C(=O)N1CSC(C)(C)[C@H]1C(=O)N[C@H]1c2ccccc2C[C@H]1O	99
CSC[C@H](NC(=O)Cc1ccc(N)cc1)C(=O)N[C@@H](Cc1ccccc1)[C@H](O)C(=O)N1CSC(C)(C)[C@H]1C(=O)N[C@H]1c2ccccc2C[C@H]1O	68
CSC[C@H](NC(=O)Cc1cccc(C)c1)C(=O)N[C@@H](Cc1ccccc1)[C@H](O)C(=O)N1CSC(C)(C)[C@H]1C(=O)N[C@H]1c2ccccc2C[C@H]1O	87
CSC[C@H](NC(=O)Cc1ccc(C)cc1)C(=O)N[C@@H](Cc1ccccc1)[C@H](O)C(=O)N1CSC(C)(C)[C@H]1C(=O)N[C@H]1c2ccccc2C[C@H]1O	88
CSC[C@H](NC(=O)COc1cccc(Nc2ccccc2)c1)C(=O)N[C@@H](Cc1ccccc1)[C@H](O)C(=O)N1CSC(C)(C)[C@H]1C(=O)N[C@H]1c2ccccc2C[C@H]1O	98
CSC[C@H](NC(=O)Cc1ccccc1)C(=O)N[C@@H](Cc1ccccc1)[C@H](O)C(=O)N1CSC(C)(C)[C@H]1C(=O)N[C@H]1c2ccccc2C[C@H]1O	85
CSC[C@H](NC(=O)Cc1ccccc1N)C(=O)N[C@@H](Cc1ccccc1)[C@H](O)C(=O)N1CSC(C)(C)[C@H]1C(=O)N[C@H]1c2ccccc2C[C@H]1O	86
COc1ccccc1CC(=O)N[C@@H](CSC)C(=O)N[C@@H](Cc1ccccc1)[C@H](O)C(=O)N1CSC(C)(C)[C@H]1C(=O)N[C@H]1c2ccccc2C[C@H]1O	81

* * *

biological target: Plasmepsin II (Plasmodium falciparum, UniProt P46925)
Sequence (P46925 whole entry): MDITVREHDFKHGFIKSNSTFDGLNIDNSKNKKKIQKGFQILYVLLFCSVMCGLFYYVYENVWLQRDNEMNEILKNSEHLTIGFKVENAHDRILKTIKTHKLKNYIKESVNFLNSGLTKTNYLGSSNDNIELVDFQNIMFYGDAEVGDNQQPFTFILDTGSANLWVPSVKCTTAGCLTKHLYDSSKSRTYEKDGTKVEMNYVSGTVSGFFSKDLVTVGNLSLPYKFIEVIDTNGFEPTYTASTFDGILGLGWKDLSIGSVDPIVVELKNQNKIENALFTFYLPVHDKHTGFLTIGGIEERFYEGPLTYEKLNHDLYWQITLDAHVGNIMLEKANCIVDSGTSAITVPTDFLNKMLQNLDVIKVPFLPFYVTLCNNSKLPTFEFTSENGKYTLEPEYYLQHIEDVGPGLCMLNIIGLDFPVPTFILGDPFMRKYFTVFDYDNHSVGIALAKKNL
pKi: −log10 of the molar value.
MEASURE_NAME: pKi

CHEM_SMILES	RELATIONAL_OPERATOR	MEASUREMENT
CSC[C@H](NC(=O)Cc1ccccc1)C(=O)N[C@@H](Cc1ccccc1)[C@H](O)C(=O)N1CSC(C)(C)[C@H]1C(=O)N[C@H]1c2ccccc2C[C@H]1O	≥	10.00
COc1ccc(CC(=O)N[C@@H](CSC)C(=O)N[C@@H](Cc2ccccc2)[C@H](O)C(=O)N2CSC(C)(C)[C@H]2C(=O)N[C@H]2c3ccccc3C[C@H]2O)cc1	=	8.40
COc1cccc(CC(=O)N[C@@H](CSC)C(=O)N[C@@H](Cc2ccccc2)[C@H](O)C(=O)N2CSC(C)(C)[C@H]2C(=O)N[C@H]2c3ccccc3C[C@H]2O)c1	=	7.77
CSC[C@H](NC(=O)Cc1ccc(O)cc1)C(=O)N[C@@H](Cc1ccccc1)[C@H](O)C(=O)N1CSC(C)(C)[C@H]1C(=O)N[C@H]1c2ccccc2C[C@H]1O	≥	10.00
CSC[C@H](NC(=O)COc1cccc2cnccc12)C(=O)N[C@@H](Cc1ccccc1)[C@H](O)C(=O)N1CSC(C)(C)[C@H]1C(=O)NC(C)(C)C	=	7.44
CSC[C@H](NC(=O)Cc1cccc(N)c1)C(=O)N[C@@H](Cc1ccccc1)[C@H](O)C(=O)N1CSC(C)(C)[C@H]1C(=O)N[C@H]1c2ccccc2C[C@H]1O	=	7.92
CSC[C@H](NC(=O)c1cc(=O)c2ccccc2o1)C(=O)N[C@@H](Cc1ccccc1)[C@H](O)C(=O)N1CSC(C)(C)[C@H]1C(=O)N[C@H]1c2ccccc2C[C@H]1O	=	8.05

* * *

Here's what we have: Ki numbers for Plasmepsin II (Plasmodium falciparum).

CHEM_SMILES	Ki [nM]
CSC[C@H](NC(=O)Cc1ccccc1N)C(=O)N[C@@H](Cc1ccccc1)[C@H](O)C(=O)N1CSC(C)(C)[C@H]1C(=O)N[C@H]1c2ccccc2C[C@H]1O	4
CSC[C@H](NC(=O)COc1cccc2cnccc12)C(=O)N[C@@H](Cc1ccccc1)[C@H](O)C(=O)N1CSC(C)(C)[C@H]1C(=O)N[C@H]1c2ccccc2C[C@H]1O	3
COc1ccccc1CC(=O)N[C@@H](CSC)C(=O)N[C@@H](Cc1ccccc1)[C@H](O)C(=O)N1CSC(C)(C)[C@H]1C(=O)N[C@H]1c2ccccc2C[C@H]1O	9
